Values from PubChem BioAssay (NCI)

- Test system: SK-MEL-2 melanoma
- method: NCI tumour cell line growth inhibition, 48 h
measuredProperty: TGI (µM)
Dear colleague, please return just the value in µM, with no unit written.

{"molecule": "C=C1CC(Cn2cc(C)c(=O)[nH]c2=O)(c2ccc(Cl)cc2)OC1=O (stereo not given)", "TGI, µM": 5.48}

Now for a further molecule.
Answer with the recorded TGI of Brc1ccc2c(C3CN[C@@H](c4c[nH]c5cc(Br)ccc45)CN3)c[nH]c2c1 (stereo not given in full) only.
10.9

====

- System: RPMI-8226 leukemia
- method: NCI tumour cell line growth inhibition, 48 h
Entries annotated with measured TGI

Consider the following illustrative entries.
{"compound": "N#Cc1nnc2ccccc2c1N", "observed": "> 100 µM"}
{"compound": "COc1ccc(/C(COc2ccc3c(c2)oc(=O)c2cc(OC)ccc23)=N/O)cc1", "observed": "> 100 µM"}
{"compound": "c1ccc2c(c1)CN1CCCC1CN2 (stereo not given)", "observed": "> 100 µM"}
{"compound": "Cc1c(C)c(S(=O)(=O)N(CCCCCCN)OCCCN)c(C)c2c1OC(C)(C)CC2", "observed": "7.68 µM"}
{"compound": "NC1CCCCC1N.O=NN1CCCCCC1(P(=O)([O-])[O-])P(=O)([O-])[O-].[Na+].[Pt+2]", "observed": "> 100 µM"}

// output TGI; input COc1cc2c(cc1OC)C1c3ccccc3CCCN1CC2 (stereo not given) ; system RPMI-8226 leukemia
> 100 µM

# return TGI of O=C1C=CC(=O)C(c2cc(-c3ccc(Cl)cc3)nn2-c2ccccc2)=C1 (system: RPMI-8226 leukemia)
41 µM
